Cited source for all entries: paper PMC9656436

test system: LAPC-4
As shown below, each of these molecules has a reported GI50 value.

// solved cases for GI50 follow
>>> df
                                   molecule  observed_result
0  C[C@]12CC[C@H]3[C@@H](CC=C4C[C@@H](O)CC[C@@]43C)[C@@H]1CC[C@@H]2Cc1cc(CO)no1          18.9 µM
1  C[C@]12CC[C@H]3[C@@H](CC=C4C[C@@H](O)CC[C@@]43C)[C@@H]1CC[C@@H]2Cc1ccon1 [41a]          > 50 µM
2  C[C@]12CC[C@H]3[C@@H](CC=C4C[C@@H](O)CC[C@@]43C)[C@@H]1CC[C@@H]2Cc1cc(CCl)no1          > 50 µM
3  CC(C)(O)c1cc(C[C@H]2CC[C@H]3[C@@H]4CC=C5C[C@@H](O)CC[C@]5(C)[C@H]4CC[C@]23C)on1 [24j]          18.2 µM
4  C[C@]12CC[C@H](O)CC1=CC[C@@H]1[C@@H]2CC[C@]2(C)C(n3cnc4ccccc43)=CC[C@@H]12          28.6 µM
5  CCCCc1cc(C[C@H]2CC[C@H]3[C@@H]4CC=C5C[C@@H](O)CC[C@]5(C)[C@H]4CC[C@]23C)on1 [24d]          > 50 µM
6  C[C@]12CC[C@H]3[C@@H](CC=C4C[C@@H](O)CC[C@@]43C)[C@@H]1CC[C@@H]2CC(=O)/C(OC(=O)n1ccnc1)=C(\N)C1CC1          > 50 µM

Now let's try a different one.
What GI50 appears in the records for this molecule with LAPC-4? C[C@]12CC[C@H]3[C@@H](CC=C4C[C@@H](O)CC[C@@]43C)[C@@H]1CC[C@@H]2Cc1cc(-c2ccccc2)no1 [24e]
> 50 µM

---

test system: AR; construct: endogenous AR in ARE14 reporter cells (22Rv1-derived); assay: cells; set-up: species or system ARE14; ARE-driven firefly luciferase reporter; AR transcriptional activity normalised to 1 nM R1881; details: 24 h; with 1 nM R1881; read-out: % of control remaining
As shown below, each of these compounds has a reported activity at 10 µM value.
Write it as a number; the unit % goes unstated.

>>> df
                                   compound  experimental_system  observed_result
0  C[C@]12CC[C@H]3[C@@H](CC=C4C[C@@H](O)CC[C@@]43C)[C@@H]1CC[C@@H]2Cc1cc(CO)no1                   AR             87.8
1  C[C@]12CC[C@H]3[C@@H](CC=C4C[C@@H](O)CC[C@@]43C)[C@@H]1CC[C@@H]2Cc1cc(CCl)no1                   AR             92.6
2  C[C@]12CC[C@H]3[C@@H](CC=C4C[C@@H](O)CC[C@@]43C)[C@@H]1CC[C@@H]2Cc1ccon1 [41a]                   AR             73.7

# get_value(readout='activity at 10 µM', item= "C[C@]12CC[C@H](O)CC1=CC[C@@H]1[C@@H]2CC[C@]2(C)C(n3cnc4ccccc43)=CC[C@@H]12" )
35.1
